Where these numbers come from: patent CN117751141A

experimental.target: T1, CD300c抗原(11832-H08H，义翘神州) (UniProt Q08708)
T1 sequence (looked up): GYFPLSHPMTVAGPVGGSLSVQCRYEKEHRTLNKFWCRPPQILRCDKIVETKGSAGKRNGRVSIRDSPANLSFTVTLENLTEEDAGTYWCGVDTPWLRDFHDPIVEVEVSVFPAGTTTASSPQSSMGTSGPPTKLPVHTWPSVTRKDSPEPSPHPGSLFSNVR
measurement.notes: binding ELISA, CD300c antigen coated at 8 μg/mL, HRP anti-Fc IgG
property.name: EC50 (µg/mL)
Numeric answer only, unit µg/mL assumed.

## Task For 抗CD300c单克隆抗体 CK3 (antibody, from another filing, V domains shown) VH: RVQLLESGGGLVQPGGSLRLSCAASGFTFSSYAISWVRQAPGKGLEWVSATSGSGRATYYADSVKGRFTISRDNSKNTLYLQMNSLRAEDTAVYYCARDTWWEGYFDLWGQGTLVTVSS VL: EIVLTQSPGTLSLSPGERATLSCQASHISTHLNWYQQKPGQAPRLLIYGASSRATGIPDRFSGSGSGTDFTLTISRLEPEDFAVYYCQQYNTYPPTFGQGTKVEIK , what is its reported EC50?
## Result 0.793
